Provide the reported abundance fitness of each item.
B1: DnaJ homolog subfamily C member 5, residues 16 to 77; numbered along this chain, Q9H3Z4 (parent)
chain: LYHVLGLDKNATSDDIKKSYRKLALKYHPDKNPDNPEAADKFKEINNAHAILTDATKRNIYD

Variants of: B1
Test: abundance fitness (aPCA) (normalised: wild type 0, dead -1); higher = more abundant; growth selection in yeast, the domain comes from the species named
Settings: Homo sapiens
Just the number, please, no unit attached.

Query :: Please give the measured abundance fitness for this variant: E37Q
Result :: 0.079

Query :: Requested field: abundance fitness. Item: G6C
Result :: -0.466

Query :: Fill blank: measured abundance fitness of the variant A50G is ____.
Result :: -0.198

Query :: Looking for the measured abundance fitness of R58E , can you help?
Result :: 0.109

Query :: GET /values?readout=abundance fitness&item= H49D
Result :: -0.4

Query :: Entry K43R : reported abundance fitness = ?
Result :: -0.263

Query :: Please report the recorded abundance fitness for P33S .
Result :: -0.121

Query :: Item under review: T56A . Reported abundance fitness?
Result :: -0.233

Query :: What abundance fitness value was documented for this variant, D40F ?
Result :: 0.029

Query :: Look up abundance fitness for this variant: N32P
Result :: -0.691

Query :: Tell me the measured abundance fitness of G6W , please.
Result :: -1.02

Query :: Report abundance fitness for L25N please.
Result :: -0.073

Query :: Fill in: abundance fitness of E44D is ___
Result :: -0.154

Query :: Consider the variant P29A and give its measured abundance fitness.
Result :: -0.053

Query :: Can you look up the measured abundance fitness of Y61M for me?
Result :: -0.218

Query :: Looking for the measured abundance fitness of A39D , can you help?
Result :: 0.033

Query :: Which value of abundance fitness has been reported for K41D in the records?
Result :: -0.493

Query :: Name the reported abundance fitness value associated with the variant I51T
Result :: -0.08

Query :: // lookup abundance fitness for D30T
Result :: 0.067

Query :: Fill blank: measured abundance fitness of the variant D8V is ____.
Result :: -0.648

Query :: abundance fitness for K31S ?
Result :: -0.51

Query :: Give the measured abundance fitness of K26S .
Result :: -0.211

Query :: Please give the measured abundance fitness for this variant: Y27R
Result :: -0.543

Query :: Which value of abundance fitness has been reported for Y27L in the records?
Result :: -0.326

Query :: I am curious: what abundance fitness value has been reported for D54R ?
Result :: -0.382

Query :: Look at this variant and give its reported abundance fitness. A48S
Result :: -0.277

Query :: Using the record for K18T , report its abundance fitness.
Result :: -0.025

Query :: If you can, please state the reported abundance fitness value of T53C .
Result :: -0.126
